System: N. gonorrhoeae WHO M
ASSAY_OVERVIEW: Liquid broth MIC in Fastidious broth
EXPERIMENTAL_CONTEXT: Neisseria gonorrhoeae, read-out: Minimum Inhibitory Concentration, WHO M
MEASURE: MIC

O=C(NCCN1CCN(C(=O)NC(C(=O)N[C@H]2Cc3ccc(F)c(C(=O)O)c3OB2O)c2cc(F)c(O)c(O)c2Cl)C1=O)Nc1ccncc1 (stereo partly drawn) :: 16 to 32 µg/mL

Query MIC for O=C(O)c1c(F)ccc2c1OB(O)[C@@H](NC(=O)C(NC(=O)N1CCN(S(=O)(=O)CCNC(=O)[C@@H]3CCCN3)C1=O)c1cc(F)c(O)c(O)c1Cl)C2 (stereo partly drawn)
4 to 8 µg/mL

Query MIC for O=C(NCCCN1CCN(C(=O)N[C@H](C(=O)N[C@H]2Cc3ccc(F)c(C(=O)O)c3OB2O)c2cc(F)c(O)c(O)c2Cl)C(=O)C1=O)c1cccc(O)c1Cl
> 64 µg/mL

Query MIC for O=C(NCCN1CCN(C(=O)NC(C(=O)N[C@H]2Cc3ccc(F)c(C(=O)O)c3OB2O)c2cc(F)c(O)c(O)c2Cl)C1=O)c1nccs1 (stereo partly drawn)
16 to 32 µg/mL

Query MIC for O=C(O)c1c(F)ccc2c1OB(O)[C@@H](NC(=O)C(NC(=O)N1CCN(CCNC(=O)[C@@H]3CCCN3)C1=O)c1cc(F)c(O)c(O)c1Cl)C2 (stereo partly drawn)
4 to 8 µg/mL

Query MIC for O=C(NCCCN1CCN(C(=O)N[C@@H](C(=O)N[C@H]2Cc3ccc(F)c(C(=O)O)c3OB2O)c2cc(F)c(O)c(O)c2Cl)C1=O)Nc1ccc(O)cc1
4 to 8 µg/mL
